// reported max response for each item listed
Experiment: qHTS RealTime-Glo MT Cell Viability Assay in HEK293 cells - 40 hour (AID 1224874); also: % is scaled to controls: 0 for no effect and ±100 for the full control effect; nearly all actives have a fitted effect of over 50% in size
Conditions: RealTime-Glo luminescence; hits give low values
Records with an inconclusive call do not appear.
Give the number; % is assumed, so skip it.

compound=Nc1ccc(Cl)cc1C(=O)c1ccccc1F metric_name="max response" unit_spec=% data_value=-9.35

In: I am curious: what max response value has been reported for `C=Cc1cccc(CCl)c1` ?
Out: 4.68

In: I am curious: what max response value has been reported for CN1CCc2cc3c(cc2C1O)OCO3 (centres undefined) ?
Out: 1.96

In: I am curious: what max response value has been reported for `CNN` ?
Out: 9.14

In: I am curious: what max response value has been reported for `COc1ccc2c(c1OC)C(=O)O[C@@H]2[C@H]1c2cc3c(cc2CCN1C)OCO3` ?
Out: 1.56

In: I am curious: what max response value has been reported for `CN1C(=O)[C@@H](NC(=O)c2cc3ccccc3[nH]2)N=C(c2ccccc2)c2ccccc21` ?
Out: 20
